Study system: human dopamine D4 receptor subtype (Homo sapiens, UniProt P21917)
Sequence (P21917 1-419): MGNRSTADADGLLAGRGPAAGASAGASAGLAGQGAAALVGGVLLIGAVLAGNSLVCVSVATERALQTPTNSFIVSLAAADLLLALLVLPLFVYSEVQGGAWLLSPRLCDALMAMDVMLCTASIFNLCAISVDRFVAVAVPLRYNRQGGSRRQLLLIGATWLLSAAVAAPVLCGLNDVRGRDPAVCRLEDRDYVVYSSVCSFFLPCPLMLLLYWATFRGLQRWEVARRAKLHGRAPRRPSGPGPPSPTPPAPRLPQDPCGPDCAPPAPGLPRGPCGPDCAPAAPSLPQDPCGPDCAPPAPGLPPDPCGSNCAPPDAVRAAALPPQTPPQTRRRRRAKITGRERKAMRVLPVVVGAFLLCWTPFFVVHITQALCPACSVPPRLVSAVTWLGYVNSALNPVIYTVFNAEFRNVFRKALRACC
Where a name gives a salt, the structure may show the parent alone.
Provide the recorded Ki for the entries that follow.
Numeric only. Scale: nM

Query: Request the reported Ki associated with c1ccc(N2CCN(Cc3cn(-c4ccccc4)cn3)CC2)cc1 [Compound 3, dihydrochloride]
Result: 2

Query: Consider the molecule shown here: c1ccc(C2CCN(Cc3cn(-c4ccccc4)cn3)CC2)cc1 [Compound 2, dihydrochloride] What is its recorded Ki?
Result: 10

Query: Please give the measured Ki for this molecule: Fc1ccc(N2CCN(Cc3cn(-c4ccccc4)cn3)CC2)cc1 [Compound 6, dihydrochloride]
Result: 3
